assay: PET hydrolysis, aromatic products released after 48 h (umol product/mg enzyme); higher = more PET depolymerization activity; settings: substrate: cryPow; 60 °C; pH 6.5
QUANTITY: PET hydrolysis

ADNPYERGPNPTESLIEAARGPFATSQTTVSSLSVTGFGGGVIYYPTDTSQGTFGGIAISPGYTAAWSSLDWLGPRLASHGFVVIGIETNTRLDQPASRGDQLLAALDYLTQRSSVRSRVDATRLAVAGHSMGGGGSLEAAKDRTSLKAAIPLAPWNTDKTWPEVRTPTLIIGGESDTVAPVSSHSIPFYTSLTSAREKAYLELDNASHFFPQTSNTTMAKYMISWMKRYIDNDTRYEQFLCPGPSTGLLSGISDWRQTCPGS [TEP073]    < 3
AENPYQRGPDPTLAALAASAGPYPIMETVVGSAEVTNFGGASIYYPAGTADGTFGGVAVTPGFLGPRSTMEWVARRVASHGFVVINIDTLERNDTPPLRARQMLAALDYLTGASAVRDRVDPTRLAVMGHSMGGGGSLQASRQRPQLKAAVPLTPWSNDKDFSADVVPTLIIGAELDDTAPVAEHAEPFFESIAAARKAYLELNDAEHRAPIRTNETIGTYSVAWLKRFVDDDTRYEQFLCPPPAPSAAIEEFRGTCPSS [TEP106]    < 3
AETTTQHGPDPTEGSITAPTGPFQTDQKTVPRSSVQGFGGGTIYYPTETSQGTFGAVTIAPGYTAGKESLAWLGPRLASQGFVVFTIDTITTSDQPDSRAKQLMASLDYLTGDSDVRDRIDTSRLAVMGHSMGGGGTLEAARDNRNLKAAIPMTPWDTTKDFSGVQTPTLIIGAQNDTIAPVAQHAKPFYGSLPDDPGKAYLELAGASHFAPNQDNTTIAKSSIAWLKRFVDDDTRYDQFLCPPPQDAEISDYQSTCPY [TEP037]    < 3

Continue with the next sequence.
Asked: Identify the reported PET hydrolysis for the following entry. DEIGQAPTASNITGNGSFATTSESISSLVSGFGGGRVYYPTATGRYPVIAISPGFTATWSSLAWIGPRLSSWGFVVVGIETNSIYDQPGSRGNQLLAALNWAVNSSSTAVRSRVDGSRRGVAGHSMGGGGTLEALAADTSGLVKAGVPLAPWNTDKIWSNVSEPVLIVGGQADTIAPVATHSVPFYNTLAGPKTYVELTGASHFFPQTTNATTSRALVSWFKRWLNQDSRFTPYTCGFGGLAVSDFRSNAC [ESM147]
Given back: 42

---

experiment: PET hydrolysis, aromatic products released after 48 h (umol product/mg enzyme); higher = more PET depolymerization activity; details: substrate: cryPow; 60 °C; pH 6.5
QUANTITY: PET hydrolysis

MPPPDSGAAAHERVHAEPSDPATVGSAGGNPFARGPDPTLASVAAEFGPFATTQLSVPPGHGFNGGYVYYPTDASPTFGAVAIVPGYTALFADEEAWMGPRLASFGFVVIGIETNSREDWDRARGAQLLAALDYVTQHSTVRTRVDSSRLAVIGHSMGGGGAFAAATRRPSLKAVVGLAPYFPSGDLATVRVPTLIIGGQRDTTVTPSYLDDLYATLPTRTPSAYLMLADADHLFPTRPNPVEMRLLIPWLKIFVDRDTRYVRFLCPLADRSGIAQYRVTCPLVPPA [TEP003]    < 3

Asked: Find the measured PET hydrolysis of AVHGPDPTDALLEASRGPYATAQIDVSALAVSGFGGGTIYYPTTTSEGTFGGVAIAPGYTADKSSLAWLAARLASHGFVVFNIDTLTRLDQPDSRGRQLLAALDYLTQRSSVRSRVDASRLGVMGHSMGGGGTLEAAVSRPSLRAAVPLTPWNLDKTWPEVRTPTLIIGADLDTIAPVLTHAEPFYASLPSTLDKAYLELNNATHFAPNITDTTIGKYAVAWMKRFIDDDTRYNRFLCPGPSWSLSVEEYRSTCPF [TEP061] and report it.
Given back: < 3

Asked: Provide PET hydrolysis value for the following sequence: QSAEASPPHGPDPTEESITAPRGPFEIDQKTVSRASVRGFGGGTIYYPTDTSEGTFSAVAIAPGYTAGQESLAWLGPRLASQGFVVFTIDTLTRYDQPDSRSRQLLAALDHLTDDSDVADRVDPARRGVMGHSMGGGGSLQAALDDPDLKAAIPMTPWHTTKDFSGVRTPTLIIGAQNDTVAPVSQHAKPFYESLPDDPGKAYLELAGASHFAPNVDNTTIARYSIAWLKRFLDDDTRYEQFLCPPPPDPAISDHQSTCPY [TEP105]
Given back: 101

---

# Lookup of reported melting temperature keyed by entry
assay: melting temperature (DSF); higher = more thermostable
Supply the numeric figure in C, leaving out any unit text.

# example entries with known answers
GRVMAASDSGTAADERVYAEPSVDPASVGSAGRNPYERGPEPTLASVAAEYGPFDTDQLTVPPGHGFNGGYIYYPTDTSQTFGAVAIVPGYTALFADEEAWMGPRLASFGFVVIGIETNSRDDWDIARGEQLLAALDYLVHHSPVRARIDANRLAVVGHSMGGGGALFAATQRPSLKAVVALAPYFPSGSLAAIRVPTMIIGGQDDTVVTPSYLDDLYASRPAHTPGAYLMLADADHLFATRPNTVEMRLLIPWLKIFVDHDTRYTQFLCPVADRSGIARHHVT [TEP126]    55.9
MPPPDSGAAAHERVHAEPSDPATVGSAGGNPFARGPDPTLASVAAEFGPFATTQLSVPPGHGFNGGYVYYPTDASPTFGAVAIVPGYTALFADEEAWMGPRLASFGFVVIGIETNSREDWDRARGAQLLAALDYVTQHSTVRTRVDSSRLAVIGHSMGGGGAFAAATRRPSLKAVVGLAPYFPSGDLATVRVPTLIIGGQRDTTVTPSYLDDLYATLPTRTPSAYLMLADADHLFPTRPNPVEMRLLIPWLKIFVDRDTRYVRFLCPLADRSGIAQYRVTCPLVPPA [TEP003]    67.6
QSSNPYQRGPAPTERSIEASRGPFAVAQTTVSRLSATGFGGGTIYYPTDTSQGRFGGVAISPGFTALQSSIAWLGPRIASQGFIVFTIDTITTLDQPAQRGDQLLAALDYLVQRSPAAVRDRLDPTRLAVMGHSMGGGGTLEAAKKRPSLKAAIPLTGWNLDTIWNDLRVPTLVVGAQLDLIAPILTFSLPFYNTIPASTEKVYLELAGASHFAPNLPDTNIAKYSIAWLKRWVDNDTRYTQFLCPGPRFELAISNYMSSCPM [DP056]    56.2
APNAAIAAAPRVAPAANPYERGPAPTEESVKAEKGPFDIAQMPVPGGAGVFGGGTIWYPKDEAGPFGAVVVSPGFMTLEPLIQWYGRTLASHGFVVMTMATITPIDPPFSRGDELRSALDYLVTKSTVKDKIDPTRTALMGHSMGGGGTLDAASKLPDLKAAIPLAPWNLDYAPPAKIKAPTLIIGADNDPIAPTAAFADPFYAALTTQNRAYLKLKNAGHTFSFLGYNPTITKYTVSWLKRFVDNDTRYDQFLCPIPAASDTVAAYQGTCPLT [DP091]    53.8

Now for a further sequence.
Asked: Supply melting temperature value. Item: DPPTHAKGVKPGPSELAAPSASDLAADGPHAVTTTAISGSVTPGFGAATIYAPASGSGYGGVAISPGYMSTQSAVSWLGPRLASHGFVVITFDTTTIWDNPDSRGVQLLAALDYLTGSSPARGQVDASRLAVMGHSMGGGGSLAAAKSRPSIDAAIPLTPWHTDKTWPEVSTPTLIVGAENDGIAPVASHAEPFYESLATSTDRAYLELNAATHSAPNSENAQISTYSLAWLKRFVDGDTSVDPILCPGPAASSTVEEYRSSCPF [DP019]
Given back: 42.7

---

experiment: purified protein yield per well (BCA); higher = higher soluble expression
Documented purified protein yield per well across a set of sequences

Reference set (4 entries):
ATGPSAPCTNCTRGPAPTTAALKSNTGPFTTAKFSVSGLLKGFGNSTVYYPTNTTGKMGAIAVIPGFLSYEDSIEWWGPRLASHGFVVMTMNTSTIYDQPDSRATQLSKALDYVISQSNTSSSPIYGKVDSTRLGAIGWSMGGGGSLKLSTQRSLNAIIPQAPYYAGLNSFNTIKTPALILACSADAVAPVGVHASPFYNKIPSTTPKAFLEIYGGSHFCANSGYPNQDLLGLYGISWMKRFIDFDTRYSQFLCGPNHTASGTISEYRQNCPY [ESM019]    < 25 µg
AQPQKGPDPTEQLVKSQTGPFDIARTSVPAGSGRGFNKGTLYYPTDTSQGAYAAVAVIPGFFEGEYTQSWFGPALASHGFVVFTLETHGLFDFPDQRGDQLIAALDWLVASSPVKDRVDPARLAVMGHSMGGGGTLAAANKRPSIKAAVALTPWHMTKRFPGIEAATMIIGAQSDSIASVSGHAEPMYAALTSPDEHAYVELTGGHFVTNSYTATNMRFILPWLKRFLDSDTRYSPFVCPGPAQDSTFVEYRNTCPV [TEP047]    < 25 µg
IENGPAPTFSSVQADGPFAVSTQTVRGSGFGGGTVYSPNTAGKYAVVAVCPGFTATQTSIALISRRLATHGFVVVTINTNTVYDYPASRANQLLAALRTVTALTTGPVAGKMDTSRQAVSGWSMGGGGAMLAAGMTPGLKAGVAFAPWSLTNNVGSSAVPMAYLAGTADTVAPASVHSSVFYNATPATTKKLIGVIQGADHYFPGTASQPASYTQVAWMKRFLDGDTRYSQFLNGDTRFATFRSTGPF [ESM109]    < 25 µg
QPIDSLETLSIKEQSTITLPTTLATKIPLTEVPATKIPLTTTTSTSPTSNCIPDSVITAAELSATRDNGPFTVATKSVPRQLANGFGGGTIHYPTNAGDCGLLGGIAVIPGYVSYEASIKWWGPRLASWGFVVITIDTNSIYDDPDSRATQLSAALDHILSDSTVGAQIDSTRLGAIGWSMGGGGALQLATKRSDIRVIIPQTPYHDKDYGNMDTPALFITCQNDRIASNKKYSSPFYNNAAGAKMKIEIKNGSHFCPSYRFNEILLSKPGIAWMHRYINGDTRFDKFLCNNENYGNSPRISAYDYKDCG [TEP174]    < 25 µg

Asked: // fetch purified protein yield per well given entry MPPPDSGAAAHERVHAEPSDPATVGSAGGNPFARGPDPTLASVAAEFGPFATTQLSVPPGHGFNGGYVYYPTDASPTFGAVAIVPGYTALFADEEAWMGPRLASFGFVVIGIETNSREDWDRARGAQLLAALDYVTQHSTVRTRVDSSRLAVIGHSMGGGGAFAAATRRPSLKAVVGLAPYFPSGDLATVRVPTLIIGGQRDTTVTPSYLDDLYATLPTRTPSAYLMLADADHLFPTRPNPVEMRLLIPWLKIFVDRDTRYVRFLCPLADRSGIAQYRVTCPLVPPA [TEP003]
Given back: 152 µg
